Target: ENPP1 on MDA-MB-231 cells (Homo sapiens (Human), UniProt P22413)
Sequence (P22413 whole entry): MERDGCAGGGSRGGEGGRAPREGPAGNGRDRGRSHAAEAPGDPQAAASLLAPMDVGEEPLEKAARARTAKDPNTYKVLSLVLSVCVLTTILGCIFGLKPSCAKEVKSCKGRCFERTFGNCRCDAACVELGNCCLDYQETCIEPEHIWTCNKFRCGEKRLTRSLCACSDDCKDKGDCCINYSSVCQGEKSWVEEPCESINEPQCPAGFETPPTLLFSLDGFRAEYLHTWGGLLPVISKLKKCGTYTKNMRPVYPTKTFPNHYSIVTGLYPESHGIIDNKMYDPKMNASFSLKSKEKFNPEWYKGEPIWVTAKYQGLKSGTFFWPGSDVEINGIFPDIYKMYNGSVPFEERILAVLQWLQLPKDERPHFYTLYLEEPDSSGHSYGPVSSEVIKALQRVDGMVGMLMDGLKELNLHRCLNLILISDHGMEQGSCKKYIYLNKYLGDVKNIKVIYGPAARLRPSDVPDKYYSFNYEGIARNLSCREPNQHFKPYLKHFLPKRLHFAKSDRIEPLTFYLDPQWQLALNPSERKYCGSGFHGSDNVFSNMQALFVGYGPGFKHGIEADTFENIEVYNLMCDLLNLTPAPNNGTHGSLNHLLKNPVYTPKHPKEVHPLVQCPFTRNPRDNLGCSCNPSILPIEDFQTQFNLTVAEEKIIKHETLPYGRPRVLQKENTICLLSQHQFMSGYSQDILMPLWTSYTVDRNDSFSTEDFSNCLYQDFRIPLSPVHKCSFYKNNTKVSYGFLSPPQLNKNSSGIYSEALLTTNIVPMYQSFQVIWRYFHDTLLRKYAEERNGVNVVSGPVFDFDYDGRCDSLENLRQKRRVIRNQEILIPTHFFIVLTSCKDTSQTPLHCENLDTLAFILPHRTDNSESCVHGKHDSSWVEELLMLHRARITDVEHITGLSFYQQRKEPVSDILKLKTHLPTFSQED
Assay: Assay 3: inhibition of ENPP1 hydrolysis of AMP p-nitrophenyl ester on MDA-MB-231 cells
pKi: −log10 of the molar value.
# pKi >= 8 gives Criterion met, anything below gives Criterion not met

Exercise: Determine whether measured pKi meets or exceeds 8 for COc1cc2nccc(OCc3cccc(S(=N)(=O)C4CC4)c3)c2cc1F (centres unmarked)
Key: Criterion met

Exercise: pKi >= 8 for COc1cc2nccc(OCc3ccc(S(C)(=N)=O)cc3)c2cc1OC (centres unmarked) ?
Key: Criterion not met

Exercise: Hi team, for COc1cc2nccc(N3CC4(CC(CS(C)(=N)=O)C4)C3)c2cc1F (centres unmarked) , is the recorded pKi at or above 8?
Key: Criterion met

Exercise: Item COc1ccc2c(O[C@@H](C)c3cccc(S(C)(=N)=O)c3)ccnc2c1 (some centres unmarked) with pKi of 8 or above?
Key: Criterion met
